- test target: UniProt P0DMM9
- Sequence (P0DMM9 whole entry): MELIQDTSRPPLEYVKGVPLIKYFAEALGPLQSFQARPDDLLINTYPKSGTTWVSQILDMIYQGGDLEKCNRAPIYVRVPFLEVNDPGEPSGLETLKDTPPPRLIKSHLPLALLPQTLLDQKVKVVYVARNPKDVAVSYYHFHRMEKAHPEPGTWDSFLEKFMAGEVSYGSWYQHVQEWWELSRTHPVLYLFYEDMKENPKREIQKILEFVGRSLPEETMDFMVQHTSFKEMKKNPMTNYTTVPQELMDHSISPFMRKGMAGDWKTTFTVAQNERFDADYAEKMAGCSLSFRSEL
- test summary: SULT1A3 inhibition studies, 1-HP initial-rate fluorescence assay
- Type: biochemical
- Design: Wild-type and mutant SULT1A3 coding regions were inserted into a pGEX-6P expression vector; N-His/GST/MBP triple-tag (N, cleaved yes); made in house; host or cells: E. coli BL21(DE3)
- test parameters: ND = inhibition was not detected at 30 μM compound; parentheses one standard error; read-out: SULT1A3 Ki/μM
property measured: log10 of Ki (log10 of the value in µM)
Recall that a logarithmic scale is used here: each number is log10 of Ki in µM.

| compound | test target | log10 of Ki |
| --- | --- | --- |
| CC(C)Cc1ccc2cc(/C=C/C(N)=O)ccc2n1 | UniProt P0DMM9 | -0.72 |

Give the measured log10 of Ki of Cc1nc2ccc(CO)cc2cc1CC(C)C .
0.88

Any idea what log10 of Ki was measured for CC(C)Cc1ccc2cc(C(N)=O)ccc2n1 [Compound 11, 2-Isobutylquinoline-6-carboxamide] ?
-0.07

# query: log10 of Ki of entry CC(C)Cc1ccc2cc(CCC(N)=O)cnc2n1
-1.77

If you can, please state the reported log10 of Ki value of COC(=O)c1ccc2nc3c(cc2c1)C(=O)CC(C)C3 (centres unmarked) .
-0.18

May I ask what log10 of Ki has been recorded for O=C(O)/C=C/c1ccc2ncccc2c1 [Compound 10, (E)-3-(quinolin-6-yl)acrylic acid] ?
0.61

Item CC(C)Cc1ccc2cc(CO)ccc2n1 has what recorded log10 of Ki?
-1.47

Form field: reported log10 of Ki of CCOC(=O)CCc1ccc2cc(CCC(N)=O)ccc2n1
-0.48
